Assay: Inhibition of B-type Bemisia tabaci (sweet potato whitefly) esterase using 500 uM of 1-naphthyl butyrate as substrate after 120 min
Observed Property: pIC50
One number for each entry, as −log10 of the molar value.

[[record]]
compound = "CCCCOCCOCCOCc1cc2c(cc1CCC)CCO2"
measured_number = 5.27


Now for the compound whose pIC50 we want.
### Prompt Give me measured pIC50, please, for this compound: CCCCOCCOCCOCc1cc2c(cc1CCC)OCO2 [PIPERONYL BUTOXIDE]
### Response 5.29

###

Exercise: state measured pIC50 for each of the molecules provided.
Assay: Inhibition of B-type Bemisia tabaci (sweet potato whitefly) esterase using 31.25 uM of 1-naphthyl butyrate as substrate after 120 min
Answers are plain numbers, as −log10 of the molar value.

[[record]]
molecule = "CCCCOCCOCCOCc1cc2c(cc1CCC)OCO2 [PIPERONYL BUTOXIDE]"
observed_property = "pIC50"
measured_number = 5.27


Let's switch to this molecule now.
### Prompt Check the records and state pIC50 for `CCCCOCCOCCOCc1cc2c(cc1CCC)CCO2`
### Response 5.32
